- assay: viability profiling in MM1S myeloma cells – cell-based, resazurin fluorescence, basal, 24 h, PK04 Diversity Set, profiling panel (AID 1174);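 further: MM1S multiple myeloma cell line; test concentration not given here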
- experimentalContext: higher = more signal, called active from +8 up or from −8 down
# cutoff 0.7 applies to z-score; >= gives True, < gives False

Some solved entries appear below for comparison.
# compound, class
records = [
    ("O=C(Nc1cc(Br)ccc1C(=O)NCc1cccc(O)c1)c1ccccc1", "False"),
    ("O=C1NC(=O)C2C1C=CC(C(O)c1ccc3c(c1)OCO3)N2Nc1ccc(Cl)cc1Cl (configuration not stated)", "False"),
]

Q: Is it the case that COC(=O)C(CC#Cc1ccc2c(c1)[C@]1(C(=O)N2)[C@H](C(=O)N2CCc3cc(OC)c(OC)cc3C2)[C@H]2C(=O)O[C@H](c3ccccc3)[C@H](c3ccccc3)N2[C@@H]1c1ccc(O)cc1)C(=O)OC has z-score reaching or exceeding 0.7?
Result: True

Q: Is the recorded value of z-score equal to or greater than 0.7 for this compound? CCCCC(=C=CC[C@H](O)c1ccccc1OCCO)C[C@H](O)c1ccccn1
Result: True

Q: // inclusive: z-score at least 0.7? input: CC(C)CN1C(=O)[C@@]2(Cc3ccccc31)c1ccccc1C(=O)N(Cc1ccccc1)[C@H]2c1ccc(CO)cc1
Result: False

Q: Can C[C@H]1NC(=O)C([C@@H](C)OCc2ccccc2)NC(=O)[C@@]23C(=O)N[C@@H](Cc4ccccc4)C2[C@H](C)[C@@]2(C)O[C@H]2C3/C=C/CC/C=C/CNC1=O (some centres not stated) be said to have z-score at or above 0.7?
Result: True

---

- Test system: Sam68 (KHDRBS1)
- assay: compounds binding KHDRBS1 protein – biochemical, small-molecule microarray, 635 nm fluorescence, primary screen (AID 1125);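 further: score merges 667 nm channel intensity with signal to noise over triplicate slides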
- experimentalContext: higher = more signal
endpoint: composite z-score
No unit in the answer, only the number.

# molecule, experimentalSystem, endpoint, reported
records = [
    ("CCC[C@@H]1C[C@@]1(CCC)[C@@H](NC(=O)c1cccs1)c1ccc(Cl)cc1", "Sam68 (KHDRBS1)", "composite z-score", -0.0604),
]

Measured composite z-score of CCN(CC)c1ccc(N2CC=CC34O[C@@H]5/C=C\CCCOC(=O)C5[C@H]3C(=O)N(CCCCCO)[C@@H]4C2=O)cc1 (stereo partly drawn) : -1.83

Cc1ccc(F)cc1S(=O)(=O)N[C@@H]1CCN(C(=O)c2ccc(OC(C)C)cc2)C1 yielded composite z-score of 1.13

---

- assay: calcein-AM signal in unstimulated myeloma cells – cell-based, calcein-AM fluorescence, 48 h, PK04 Diversity Set, profiling panel (AID 1166);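 further: cells grown under basal conditions without added stimulus; test concentration not given here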
- experimentalContext: RPMI8226 myeloma viability, higher = more signal
Labelling field: enter Fulfilled if recorded z-score is less than -1. Enter Not fulfilled if it equals or exceeds that cut-off.

# compound, class
measured = [
    ("CC(C)CCC[C@@H](C)[C@H]1CC[C@@]2(C)C3=C(CC[C@]12C)[C@@]1(C)CC[C@H](OC(=O)C(C)(C)C)C(C)(C)C1CC3 (stereo not given in full)", "Not fulfilled"),
    ("CCOc1cc(C(O)C2C=CC3C(=O)NC(=O)C3N2Nc2ccccn2)ccc1O (stereo not given)", "Not fulfilled"),
    ("COCCOC(=O)N1C(=O)[C@@]2(c3cc(C#CCNC(N)=O)ccc31)[C@H](c1ccc(OCCO)cc1)N1[C@H](c3ccccc3)[C@H](c3ccccc3)OC(=O)[C@H]1[C@@H]2C(=O)N1CCN(c2ncccn2)CC1", "Not fulfilled"),
    ("COC(=O)[C@@]1(Cc2ccccc2N=[N+]=[N-])N=C(c2ccc(OCCCO)cc2)O[C@H]1c1ccccc1", "Fulfilled"),
    ("O=C1C2C=CC(C(O)c3cccc4ccccc34)N(Nc3ccccc3)C2C(=O)N1c1ccccc1 (stereo not given)", "Fulfilled"),
    ("C[C@]12C(=O)N(CCCCCO)[C@@H]3C(=O)N(c4ccc(Cl)cc4)CC=CC31O[C@@H]1/C=C\\CCCOC(=O)C12 (stereo not given in full)", "Not fulfilled"),
    ("C=CCC(OC(C)=O)[C@@H]1[C@@H](N(Cc2cccc3ccccc23)C(=O)Cc2ccc(F)cc2)c2cc(OCCCO)ccc2N1C(=O)Cc1ccc(OC)cc1 (stereo not given in full)", "Not fulfilled"),
    ("CN(C)C(=O)[C@@]1(CCC(=O)OC(C)(C)C)COC(c2ccc(OCCCO)cc2)=N1", "Not fulfilled"),
]

Q: Check if z-score falls below -1 for COC(=O)[C@@]1(Cc2ccccc2)[C@H]2c3cc(C(=O)N(C)C)n(Cc4ccc(O)c(OC)c4)c3C[C@H]2CN1C(=O)c1ccccc1 .
Result: Fulfilled

Q: Item CCCC=C(CCC)[C@@H](NC(=O)Cc1ccccc1)c1ccc(C(=O)OC)cc1 : z-score beneath -1, strictly?
Result: Not fulfilled

Q: Problem: For the compound COCCOC(=O)N1C(=O)[C@@]2(c3cc(C#Cc4ccc(OC)cc4)ccc31)[C@H](C(N)=O)[C@H]1C(=O)O[C@H](c3ccccc3)[C@H](c3ccccc3)N1[C@@H]2c1ccc(OCCO)cc1 , is z-score under -1?
Result: Fulfilled
